Cited source: patent US20260085114A1

Catalogue of kon values
- MEASUREMENT_TARGET: T1, human GPRC5D protein (KACTUS, catalog number GPR-HM05P) (human, UniProt Q9NZD1 1-345, limits assumed)
- T1 construct: Bought reagent used as analyte in the Fortebio assay; the construct is not described
- T1 sequence (Q9NZD1 whole entry): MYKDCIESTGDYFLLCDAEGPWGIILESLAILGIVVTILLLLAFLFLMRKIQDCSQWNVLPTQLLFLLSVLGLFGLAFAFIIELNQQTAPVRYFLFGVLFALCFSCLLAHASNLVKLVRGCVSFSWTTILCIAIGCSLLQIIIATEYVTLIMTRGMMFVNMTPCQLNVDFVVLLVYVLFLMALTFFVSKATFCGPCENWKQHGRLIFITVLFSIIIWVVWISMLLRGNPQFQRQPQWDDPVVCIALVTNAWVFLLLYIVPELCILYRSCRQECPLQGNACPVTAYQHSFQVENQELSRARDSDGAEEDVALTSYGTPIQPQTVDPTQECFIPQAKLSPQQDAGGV
- TEST_DETAILS: Fortebio BLI, antibody captured on AHC chip, human GPRC5D protein as analyte
Form entry: value (M⁻¹ s⁻¹) — number only.

BINDER	MEASURED
humanized antibody 6E97 (hz) (antibody, V domains shown) VH: QVQLVQSGAEVKKPGASVKVSCKASGYTFPYYVIHWVRQAPGQGLEWIGYINPYNAGTKYNEKFKGRATLTSDKSTSTAYMELSSLRSEDTAVYYCARGGVRRYFDYWGQGTTVTVSS VL: DIQLTQSPSTLSASVGDRVTITCRASQDIGSNLNWLQQKPGGTIKRLISATSSLDSGVPSRFSGSRSGSEYTLTISSLQPDDFATYYCLQYATFPYTFGQGTRLEIKR	45500
humanized antibody 24F5 (hz) (antibody, V domains shown) VH: QVQLVQSGAEVKKPGASVKVSCKASGYTFPYYVMHWVRQAPGQGLEWIGYINPYNDGTKYNEKFKGRATLTSDKSTSTAYMELSSLRSEDTAVYYCARGGVRRYFDYWGQGTTVTVSS VL: DIQMTQSPSTLSASVGDRVTITCRASQDIGSNLNWLQQKPGGTIKRLIYATSSLDSGVPSRFSGSRSGSEYTLTISSLQPDDFATYYCLQYATFPYTFGQGTRLEIKR	39900
humanized antibody 9D7 (hz) (antibody, V domains shown) VH: QVQLQESGPGLVKPSETLSLTCTVSGYSITSDYAWNWIRQPPGKGLEWMGYISYSGSATYSPSLKSRITISRDTSKNQFSLKLSSVTAADTAVYYCARGGIAGRGRWGAMDYWGQGTTVTVSS VL: DIQMTQSPSSLSASVGDRVTITCKASQNVGTNVAWYQQKPGQSPKALIYSASYRDSGVPDRFSGSGSGTDFTLTISSLQPEDFATYYCQQYKSYPLTFGQGTRLEIKR	22600

Task: Answer with reported kon of humanized antibody 26D1 (hz) (antibody, V domains shown) VH: QVQLVQSGAEVKKPGASVKVSCKASGYTFTSYTIQWIKQAPGQGLEWIGYIIPSSGYTNYNQKFKDKATLTADKSSNTAYMELSSLTSEDTAVYYCANNYGNWGFTYWGQGTTVTVSS VL: DIQMTQSPSTLSASVGDRVTITCKASQNVGSAVTWYQQKPGKAPRLLIYSASNRYTGVPDRFSGSGSGTEFTLTISSLQPDDFATYFCQQYSNYPLTFGQGTRLEIKR
Output: 18500
